Measured EC50, listed per entry.
- TEST TARGET: T1, recombinant human TNFR2 antigen (Kangdai, batch number A100114U) (human, UniProt P20333 23-257)
- T1 construct: also called hTNFR2; TNFR2-FC (Shanghai Saijin Biopharmaceutical Co., Ltd., Qiangke, catalog number A100114U); not shown: Fc part of the bought TNFR2-FC
- T1 sequence (looked up): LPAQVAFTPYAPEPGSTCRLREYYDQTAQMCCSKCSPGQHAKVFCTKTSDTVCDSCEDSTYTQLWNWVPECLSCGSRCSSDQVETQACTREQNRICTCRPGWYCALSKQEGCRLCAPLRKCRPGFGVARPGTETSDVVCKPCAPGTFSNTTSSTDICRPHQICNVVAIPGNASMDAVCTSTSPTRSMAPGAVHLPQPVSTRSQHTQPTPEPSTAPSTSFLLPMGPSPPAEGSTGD
- ASSAY PROTOCOL: ELISA, plate coated with recombinant human TNFR2 antigen
Return type: number; implicit unit nM.

Example entries begin here.
anti-human TNFR2 mouse monoclonal antibody 16D2 (antibody, V domains shown) VH: EVQLQQSEPELVKPGASVKIPCKASGYTFTDYNMDWVKQSHGKSLEWIGDINPNNGVTIYNQKFKGKATLTVDKSSSTAYMELRSLTSEDTAVYYCVILEYFDYWGQGTTLTVSS VL: DIVMTQSTSSMSVSLGDTVSITCHASQGISSNIGWLQQKPGKSFKGLIYHGTKLEDGVPSRFSGSGSGADYSLTISSLESEDFADYYCVQYAQFPRTFGGGTKLEIK: 0.146
anti-human TNFR2 mouse monoclonal antibody 13F5 (antibody, V domains shown) VH: QVQLQQSGAELVRPGTSVKMSCKASGYTFTNYWIGWTKQRPGHGLEWIGDIFPGGDFTNYNEKFKGKATLTADKSSSTAYLQFSSLTSEDSAIYYCSRRRFTTIVAPGFDYWGQGTTLTVSS VL: QLVLTQSSSASFSLGASAKLTCTLSSQHSMYTIEWYQQQPLKPPKFVMELKKDGSHSTGDGIPDRFSGSSSGADRYLNISNIQPEDEAIYICGVGDTIKEQFVYVFGGGTEVTVL: 0.428

// next item, EC50 requested
Entry under review: anti-human TNFR2 mouse monoclonal antibody 18A2 (antibody, V domains shown, also called 18A12) VH: DVQLQESGPGLVKPSQSLSLTCSVTGYSITSGYYWNWIRQFPGNKLEWMGYISYDGSNNYNPSLKKRISITRDTSKNQFFLKLNSVTTEDTATYYCTGGSGTSWGQGTLVTVSA VL: DIVMTQSHKFMSTSVGDRVSITCKASQDVTTGIAWYQQKPGQSPKLLIYSASNRFTGVPDRFTGSGSGTDFTFTISSVQAEDLAVYFCQQHYSTPFTFGSGTKLEIQ . Reported EC50? 0.312
